tested on: IFNγ-induced Nitric Oxide production; assay: Nitric oxide production assay in RAW 264.7 mouse macrophages; format: cell-based; conditions: RAW264.7, suppression of IFNγ-induced NO production normalized to cell viability (WST-1), RAW 264.7, 24 hours IFNγ
pIC50: −log10 of the molar value.
Rule for this label: label 1 means pIC50 is less than 8; label 0 means pIC50 is at least 8.

- MOLECULE: "COC(=O)[C@]12CCC(C)(C)C[C@H]1[C@H]1C(=O)C=C3[C@@]4(C)C=C(C#N)C(=O)[C@@](C)(CCO[Si](C)(C)C(C)(C)C)[C@@H]4CC[C@@]3(C)[C@]1(C)CC2"
  TGT: "IFNγ-induced Nitric Oxide production"
  CLASSIFICATION: "label 1"
- MOLECULE: "COC(=O)[C@]12CCC(C)(C)C[C@H]1[C@H]1C(=O)C=C3[C@@]4(C)C=C(C#N)C(=O)[C@@](C)(NC(C)=O)[C@@H]4CC[C@@]3(C)[C@]1(C)CC2"
  TGT: "IFNγ-induced Nitric Oxide production"
  CLASSIFICATION: "label 1"
- MOLECULE: "COC(=O)[C@]12CCC(C)(C)C[C@H]1[C@H]1C(=O)C=C3[C@@]4(C)C=C(C#N)C(=O)[C@@H](C)[C@@H]4CC[C@@]3(C)[C@]1(C)CC2 [Comparison Compound #1, reference compound]"
  TGT: "IFNγ-induced Nitric Oxide production"
  CLASSIFICATION: "label 0"
- MOLECULE: "Cc1nnc([C@]23CCC(C)(C)C[C@H]2[C@H]2C(=O)C=C4[C@@]5(C)C=C(C#N)C(=O)[C@@](C)(O)[C@@H]5CC[C@@]4(C)[C@]2(C)CC3)o1"
  TGT: "IFNγ-induced Nitric Oxide production"
  CLASSIFICATION: "label 1"
- MOLECULE: "CN(C)C(=O)[C@]12CCC(C)(C)C[C@H]1[C@H]1C(=O)C=C3[C@@]4(C)C=C(C#N)C(=O)[C@@](C)(O)[C@@H]4CC[C@@]3(C)[C@]1(C)CC2"
  TGT: "IFNγ-induced Nitric Oxide production"
  CLASSIFICATION: "label 1"
- MOLECULE: "Cc1noc([C@]23CCC(C)(C)C[C@H]2[C@H]2C(=O)C=C4[C@@]5(C)C=C(C#N)C(=O)C(C)(C)[C@@H]5CC[C@@]4(C)[C@]2(C)CC3)n1 [Comparison Compound #9, reference compound]"
  TGT: "IFNγ-induced Nitric Oxide production"
  CLASSIFICATION: "label 0"
- MOLECULE: "COC(=O)[C@]12CCC(C)(C)C[C@H]1[C@H]1C(=O)C=C3[C@@]4(C)C=C(C#N)C(=O)[C@@](C)(NC(=O)OC(C)(C)C)[C@@H]4CC[C@@]3(C)[C@]1(C)CC2"
  TGT: "IFNγ-induced Nitric Oxide production"
  CLASSIFICATION: "label 1"
- MOLECULE: "COC(=O)[C@]12CCC(C)(C)C[C@H]1[C@@]1(O)C(=O)C=C3[C@@]4(C)C=C(C#N)C(=O)C(C)(C)[C@@H]4CC[C@@]3(C)[C@]1(C)CC2 [Comparison Compound #5, reference compound]"
  TGT: "IFNγ-induced Nitric Oxide production"
  CLASSIFICATION: "label 0"
- MOLECULE: "COC(=O)[C@]12CCC(C)(C)C[C@H]1[C@H]1C(=O)C=C3[C@@]4(C)C=C(C#N)C(=O)[C@@](C)(N)[C@@H]4CC[C@@]3(C)[C@]1(C)CC2"
  TGT: "IFNγ-induced Nitric Oxide production"
  CLASSIFICATION: "label 1"

====

system: hIL17; experiment: IL-17 release from differentiated primary human T-cells (IL-17A HTRF assay); format: cell-based; conditions: inhibition of IL-17A levels; primary human CD4+ T cells differentiated into Th17 cells, 46-hour incubation
pIC50: −log10 of the molar value.
METRIC: pIC50

- COMPOUND: "COC(=O)[C@]12CCC(C)(C)C[C@H]1[C@H]1C(=O)C=C3[C@@]4(C)C=C(C#N)C(=O)[C@@](C)(NC(=O)OC(C)(C)C)[C@@H]4CC[C@@]3(C)[C@]1(C)CC2 [Compound T10]"
  METRIC: "pIC50"
  QUANTITATIVE READOUT: 6.69
- COMPOUND: "C[C@H](O)[C@]1(C)C(=O)C(C#N)=C[C@]2(C)C3=CC(=O)[C@]45OC(=O)[C@@]6(CCC(C)(C)C[C@H]64)CC[C@@]5(C)[C@]3(C)CC[C@@H]12 [Compound T48]"
  METRIC: "pIC50"
  QUANTITATIVE READOUT: 7.89
- COMPOUND: "COC(=O)[C@]12CCC(C)(C)C[C@H]1[C@H]1C(=O)C=C3[C@@]4(C)C=C(C#N)C(=O)[C@@](C)(N)[C@@H]4CC[C@@]3(C)[C@]1(C)CC2 [Compound T11]"
  METRIC: "pIC50"
  QUANTITATIVE READOUT: 7.12
- COMPOUND: "COC(=O)N[C@]12CCC(C)(C)C[C@H]1[C@H]1C(=O)C=C3[C@@]4(C)C=C(C#N)C(=O)[C@@](C)(O)[C@@H]4CC[C@@]3(C)[C@]1(C)CC2 [Compound T39]"
  METRIC: "pIC50"
  QUANTITATIVE READOUT: 7.33

====

biological target: human RORγ (Homo sapiens, UniProt P51449); assay: RORγ assay (GAL4-RORγ hybrid luciferase reporter, inverse-agonist activity); conditions: GAL4-RORγ hybrid reporter cells, 23 hours
Sequence (P51449 269-508 limits assumed): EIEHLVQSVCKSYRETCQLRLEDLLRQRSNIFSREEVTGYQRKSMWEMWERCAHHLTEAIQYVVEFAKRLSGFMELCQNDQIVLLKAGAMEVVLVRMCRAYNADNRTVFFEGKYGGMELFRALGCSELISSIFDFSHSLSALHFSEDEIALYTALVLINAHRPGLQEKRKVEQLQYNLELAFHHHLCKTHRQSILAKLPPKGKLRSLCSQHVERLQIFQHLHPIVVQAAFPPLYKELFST

- ITEM SMILES: "CC(=O)OC[C@]1(C)C(=O)C(C#N)=C[C@]2(C)C3=CC(=O)[C@@H]4[C@@H]5CC(C)(C)CC[C@]5(C(=O)NCC(F)(F)F)CC[C@@]4(C)[C@]3(C)CC[C@H]21"
  IC50 (nM): 145
- ITEM SMILES: "COC(=O)C[C@]1(C)C(=O)C(C#N)=C[C@]2(C)C3=CC(=O)[C@@H]4[C@@H]5CC(C)(C)CC[C@]5(C(=O)OC)CC[C@@]4(C)[C@]3(C)CC[C@H]21"
  IC50 (nM): 203
- ITEM SMILES: "Cc1noc([C@]23CCC(C)(C)C[C@H]2[C@H]2C(=O)C=C4[C@@]5(C)C=C(C#N)C(=O)[C@@](C)(CO)[C@@H]5CC[C@@]4(C)[C@]2(C)CC3)n1"
  IC50 (nM): 165
- ITEM SMILES: "COC(=O)[C@]12CCC(C)(C)C[C@H]1[C@H]1C(=O)C=C3[C@@]4(C)C=C(C#N)C(=O)[C@@](C)(C(=O)N(C)C)[C@@H]4CC[C@@]3(C)[C@]1(C)CC2"
  IC50 (nM): 139
